- test-target: Sigma non-opioid intracellular receptor 1 (Rattus norvegicus, UniProt Q9R0C9)
- Sequence (Q9R0C9 whole entry): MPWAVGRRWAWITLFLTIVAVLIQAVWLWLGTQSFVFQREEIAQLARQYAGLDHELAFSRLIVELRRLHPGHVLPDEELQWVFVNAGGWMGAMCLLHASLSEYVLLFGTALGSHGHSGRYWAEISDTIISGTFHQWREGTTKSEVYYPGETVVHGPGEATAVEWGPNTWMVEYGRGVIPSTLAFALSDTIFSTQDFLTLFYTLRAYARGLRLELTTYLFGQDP
- measurement-protocol: In vitro for binding affinity against sigma receptor using [3H](+)-3-PPP as radioligand
Class (required): determined from IC50; valid ranges are lower bin = under 10 nM, middle bin = from 10 nM up to 70 nM, upper bin = 70 nM and over

- compound: "Oc1cccc2c1CCC1NCCCC21 (racemic)"
  test-target: "Sigma non-opioid intracellular receptor 1 (Rattus norvegicus, UniProt Q9R0C9)"
  class-assignment: "upper bin"
- compound: "CCCN1CCCC2c3cc(O)ccc3CCC21 (racemic; 21)"
  test-target: "Sigma non-opioid intracellular receptor 1 (Rattus norvegicus, UniProt Q9R0C9)"
  class-assignment: "middle bin"
- compound: "Oc1ccc2c(c1)C1CCCNC1CC2 (racemic; 31)"
  test-target: "Sigma non-opioid intracellular receptor 1 (Rattus norvegicus, UniProt Q9R0C9)"
  class-assignment: "upper bin"
- compound: "CCCCN1CCC[C@@H](c2cccc(O)c2)C1"
  test-target: "Sigma non-opioid intracellular receptor 1 (Rattus norvegicus, UniProt Q9R0C9)"
  class-assignment: "middle bin"
- compound: "CCCCN1CCC[C@H](c2cccc(O)c2)C1"
  test-target: "Sigma non-opioid intracellular receptor 1 (Rattus norvegicus, UniProt Q9R0C9)"
  class-assignment: "lower bin"
- compound: "CCCN1CCCC2c3cc(O)ccc3CCC21 (stereo in doubt; form 2)"
  test-target: "Sigma non-opioid intracellular receptor 1 (Rattus norvegicus, UniProt Q9R0C9)"
  class-assignment: "middle bin"
- compound: "COc1ccc2c(c1)C1CCCN(CCc3ccccc3)C1CC2 (racemic)"
  test-target: "Sigma non-opioid intracellular receptor 1 (Rattus norvegicus, UniProt Q9R0C9)"
  class-assignment: "middle bin"
- compound: "CCCCN1CCCC2c3cc(OC)ccc3CCC21 (racemic)"
  test-target: "Sigma non-opioid intracellular receptor 1 (Rattus norvegicus, UniProt Q9R0C9)"
  class-assignment: "lower bin"
- compound: "CN1CCC[C@H](c2cccc(O)c2)C1"
  test-target: "Sigma non-opioid intracellular receptor 1 (Rattus norvegicus, UniProt Q9R0C9)"
  class-assignment: "upper bin"
- compound: "CCCCN1CCCC2c3cccc(O)c3CCC21 (racemic)"
  test-target: "Sigma non-opioid intracellular receptor 1 (Rattus norvegicus, UniProt Q9R0C9)"
  class-assignment: "middle bin"

====

- test-target: D(2) dopamine receptor (Rattus norvegicus, UniProt P61169)
- Sequence (P61169 whole entry): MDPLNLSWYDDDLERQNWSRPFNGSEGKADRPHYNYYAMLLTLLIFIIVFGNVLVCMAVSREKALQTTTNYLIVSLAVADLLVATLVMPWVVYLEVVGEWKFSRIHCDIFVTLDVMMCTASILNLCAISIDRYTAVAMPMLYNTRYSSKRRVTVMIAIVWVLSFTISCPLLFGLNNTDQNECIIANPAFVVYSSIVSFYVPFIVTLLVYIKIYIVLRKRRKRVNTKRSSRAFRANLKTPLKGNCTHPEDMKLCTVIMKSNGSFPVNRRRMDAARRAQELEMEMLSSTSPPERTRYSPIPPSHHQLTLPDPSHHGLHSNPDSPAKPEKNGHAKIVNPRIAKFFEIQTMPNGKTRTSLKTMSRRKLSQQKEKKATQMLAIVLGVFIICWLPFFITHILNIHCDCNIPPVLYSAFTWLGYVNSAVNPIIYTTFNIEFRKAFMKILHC
- measurement-protocol: Binding affinity against Dopamine receptor D2 using [3H]spiperone as radioligand
pIC50: −log10 of the molar value.
Criterion: pIC50 meeting or surpassing 6. Met: satisfied. Not met: not satisfied.

- molecule: "CC(C)N1CCC[C@H](c2cccc(O)c2)C1"
  class-assignment: "not satisfied"
- molecule: "CCN1CCCC2c3cc(O)ccc3CCC21 (racemic)"
  class-assignment: "satisfied"
- molecule: "CCCN1CCC[C@H]2c3cccc(O)c3CC[C@@H]21"
  class-assignment: "satisfied"
- molecule: "CCCCN1CCCC2c3cccc(O)c3CCC21 (racemic)"
  class-assignment: "satisfied"
- molecule: "Oc1cccc([C@@H]2CCCNC2)c1"
  class-assignment: "not satisfied"
- molecule: "CN1CCC[C@H](c2cccc(O)c2)C1"
  class-assignment: "not satisfied"
- molecule: "CC(C)N1CCC[C@@H](c2cccc(O)c2)C1"
  class-assignment: "satisfied"
- molecule: "Oc1cccc([C@@H]2CCCN(CCc3ccccc3)C2)c1"
  class-assignment: "satisfied"
- molecule: "CCCN1CCCC2c3cc(O)ccc3CCC21 (racemic; 21)"
  class-assignment: "satisfied"
- molecule: "Oc1cccc2c1CC[C@H]1NCCC[C@H]21"
  class-assignment: "not satisfied"
- molecule: "CCCCN1CCCC2c3cc(O)ccc3CCC21 (racemic; 23)"
  class-assignment: "not satisfied"

====

- test-target: Sigma non-opioid intracellular receptor 1 (Rattus norvegicus)
- measurement-protocol: In vitro for binding affinity against sigma receptor using [3H](+)-3-PPP as radioligand

- compound: "CC(C)N1CCC[C@H](c2cccc(O)c2)C1"
  IC50 / nM: 247
- compound: "CCCN1CCCC2c3cc(O)ccc3CCC21 (stereo in doubt; form 1)"
  IC50 / nM: 520
- compound: "Oc1cccc2c1CC[C@H]1NCCC[C@H]21"
  IC50 / nM: 2370
- compound: "Oc1cccc([C@@H]2CCCN(CCc3ccccc3)C2)c1"
  IC50 / nM: 16
- compound: "CN1CCCC(c2cccc(O)c2)C1 (configuration not stated)"
  IC50 / nM: 1910
- compound: "CN1CCCC2c3cc(O)ccc3CCC21 (racemic)"
  IC50 / nM: 221
- compound: "Oc1cccc2c1CCC1C2CCCN1CCc1ccccc1 (racemic)"
  IC50 / nM: 65
- compound: "CCCN1CCCC2c3c(O)cccc3CCC21 (racemic)"
  IC50 / nM: 1930
- compound: "CCCN1CCCC2c3ccc(O)cc3CCC21 (racemic; 30)"
  IC50 / nM: 40
- compound: "Oc1cccc([C@H]2CCCN(CCc3ccccc3)C2)c1"
  IC50 / nM: 8
- compound: "CCCN1CCC[C@@H]2c3cccc(O)c3CC[C@@H]21 (racemic)"
  IC50 / nM: 416
- compound: "Oc1cccc([C@@H]2CCCNC2)c1"
  IC50 / nM: 15600

====

Each entry below carries its recorded Accumulated counts.
- Test system: Rattus norvegicus
- measurement-protocol: post-synaptic dopaminergic effect was assessed by the increase in locomotor activity at 30 min time interval by 3.1 umol/kg dosage administration
- Type: functional

- compound: "CCN1CCCC2c3cccc(O)c3CCC21 (racemic)"
  Accumulated counts: 19
- compound: "CCCN1CCC[C@@H]2c3cccc(O)c3CC[C@@H]21"
  Accumulated counts: 59
- compound: "CCCN1CCCC2c3cccc(O)c3CCC21 (racemic)"
  Accumulated counts: 163
- compound: "CCCCN1CCCC2c3cccc(O)c3CCC21 (racemic)"
  Accumulated counts: 196
- compound: "CCCN1CCC[C@H]2c3cccc(O)c3CC[C@@H]21"
  Accumulated counts: 78

====

- test-target: D(2) dopamine receptor (Rattus norvegicus)
- measurement-protocol: Binding affinity against Dopamine receptor D2 using [3H]spiperone as radioligand
pIC50: −log10 of the molar value.
Criterion: pIC50 meeting or surpassing 7. Met: Yes. Not met: No.

- compound: "Oc1ccc2c(c1)C1CCCNC1CC2 (racemic; 18)"
  class-assignment: "No"
- compound: "Oc1ccc2c(c1)C1CCCN(CCc3ccccc3)C1CC2 (racemic)"
  class-assignment: "No"
- compound: "CCCN1CCCC2c3ccc(O)cc3CCC21 (racemic; 17)"
  class-assignment: "No"
- compound: "Oc1cccc2c1CCC1C2CCCN1CCc1ccccc1 (racemic)"
  class-assignment: "Yes"
- compound: "CCCN1CCCC2c3cc(O)ccc3CCC21 (stereo in doubt; form 2)"
  class-assignment: "Yes"
- compound: "COc1ccc2c(c1)C1CCCN(Cc3ccccc3)C1CC2 (racemic)"
  class-assignment: "No"
- compound: "CN1CCCC2c3cc(O)ccc3CCC21 (racemic)"
  class-assignment: "No"
- compound: "Oc1ccc2c(c1)C1CCCN(Cc3ccccc3)C1CC2 (racemic)"
  class-assignment: "No"
- compound: "Oc1ccc2c(c1)C1CCCNC1CC2 (racemic; 31)"
  class-assignment: "No"
- compound: "Oc1cccc2c1CCC1NCCCC21 (racemic)"
  class-assignment: "No"

====

- test-target: D(2) dopamine receptor (Rattus norvegicus)
- measurement-protocol: Binding affinity against Dopamine receptor D2 using [3H]spiperone as radioligand
pIC50: −log10 of the molar value.
Each entry below carries its recorded pIC50.
reported-metric: pIC50

- compound: "CCCN1CCC[C@@H]2c3cccc(O)c3CC[C@@H]21 (racemic)"
  val: 5.68
- compound: "Oc1cccc2c1CC[C@@H]1NCCC[C@@H]21"
  val: 7.04
- compound: "CCCN1CCCC2c3c(O)cccc3CCC21 (racemic)"
  val: 4.21

====

- Tested on: Dopamine D2 receptor (Rattus norvegicus)
- measurement-protocol: Effective dose required for DOPA accumulation (presynaptic dopaminergic effect) in rat
Each entry below carries its recorded log10 ED50.
reported-metric: log10 ED50 (log10 of the value in µmol/kg)

- molecule: "CN1CCCC2c3cc(O)ccc3CCC21 (racemic)"
  log10 ED50: -0.40
- molecule: "Oc1cccc2c1CCC1C2CCCN1CCc1ccccc1 (racemic)"
  log10 ED50: -1.37
- molecule: "CCCN1CCCC2c3cc(O)ccc3CCC21 (racemic; 21)"
  log10 ED50: -2.10
- molecule: "CCCCN1CCCC2c3cccc(O)c3CCC21 (racemic)"
  log10 ED50: -1.10
- molecule: "CCCN1CCCC2c3cc(O)ccc3CCC21 (stereo in doubt; form 2)"
  log10 ED50: -2.40
- molecule: "CCCN1CCCC2c3cc(O)ccc3CCC21 (stereo in doubt; form 1)"
  log10 ED50: -0.60
- molecule: "CCN1CCCC2c3cc(O)ccc3CCC21 (racemic)"
  log10 ED50: -1.77
